Cited source for all entries: patent US20250188040A1

molecular target: hWRN(519-1227)_C-H3CV-GFP-10His (Homo sapiens); test: Helicase Assay for WRN Inhibition (ATP-dependent, fluorescence based); settings: WRN Helicase IC50, 30 min preincubation with ATP, 30 min reaction
pIC50: −log10 of the molar value.
The following compounds are listed with their measured pIC50 values.
MEASURE: pIC50

>>> df
                                    compound  measure  test_result
 0  C[C@@H](/C=C/S(C)(=O)=O)NC(=O)c1cnc(C2CC2)nc1Oc1ccccc1    pIC50         5.96
 1  C[C@@H](/C=C/S(C)(=O)=O)NC(=O)c1cnc(C(F)(F)C2CC2)nc1Oc1ccccc1    pIC50         6.74
 2  C[C@@H](/C=C/S(C)(=O)=O)NC(=O)c1cnc(N2CCCC2(C)C)nc1Oc1ccccc1    pIC50         5.17
 3  C[C@@H](/C=C/S(C)(=O)=O)NC(=O)c1c(N)nc(C2CCCC2)nc1Oc1ccccc1    pIC50         5.94
 4  C[C@@H](/C=C/S(C)(=O)=O)NC(=O)c1cc(C#N)c(C2CCCC2)nc1Oc1ccccc1    pIC50         6.13
 5  C[C@@H](/C=C/S(C)(=O)=O)NC(=O)c1cnc(C2CCCC2)nc1O[C@H]1CCCC[C@H]1O (single isomer, unassigned)    pIC50         4.07
 6  C[C@@H](/C=C/S(C)(=O)=O)NC(=O)c1cnc(CC(F)(F)F)nc1Oc1ccccc1    pIC50         5.09
 7  CC(C)Oc1cc(C2CCCC2)ccc1C(=O)NC/C=C/S(C)(=O)=O    pIC50         4.29
 8  [2H]c1c([2H])c([2H])c(Oc2nc(C(F)(F)C3CC3)ncc2C(=O)N[C@H](/C=C/S(C)(=O)=O)C2CC2)c([2H])c1[2H]    pIC50         7.24
 9  C[C@@H](/C=C/S(C)(=O)=O)NC(=O)c1cnc(C2CCCC2)nc1C1CCCCC1    pIC50         3.83
10  CCOc1cc(C2CCCC2)ccc1C(=O)NC/C=C/S(C)(=O)=O    pIC50         4.21
11  C[C@@H](/C=C/S(C)(=O)=O)NC(=O)c1cnc(C2CC2)nc1OC1CCCC1    pIC50         5.72
12  CS(=O)(=O)/C=C/CNC(=O)c1cnc(C2CCCC2)nc1Oc1cccc(F)c1    pIC50         5.42
13  C[C@@H](/C=C/S(C)(=O)=O)NC(=O)c1cnc(C(C)(C)C)cc1Oc1ccccc1    pIC50         6.03
14  CN(CC(F)(F)F)c1ncc(C(=O)N[C@H](/C=C/S(C)(=O)=O)C2CC2)c(Oc2ccccc2)n1    pIC50         5.62
15   N#C/C=C\CNC(=O)c1cnc(C2CC2)nc1Oc1ccccc1    pIC50         4.54

====

molecular target: hWRN(519-1227)_C-H3CV-GFP-10His (Homo sapiens, UniProt Q14191); test: Helicase Assay for WRN Inhibition (ATP-dependent, fluorescence based); conditions: WRN Helicase IC50, 30 min preincubation with ATP, 30 min reaction
Sequence (Q14191 519-1227): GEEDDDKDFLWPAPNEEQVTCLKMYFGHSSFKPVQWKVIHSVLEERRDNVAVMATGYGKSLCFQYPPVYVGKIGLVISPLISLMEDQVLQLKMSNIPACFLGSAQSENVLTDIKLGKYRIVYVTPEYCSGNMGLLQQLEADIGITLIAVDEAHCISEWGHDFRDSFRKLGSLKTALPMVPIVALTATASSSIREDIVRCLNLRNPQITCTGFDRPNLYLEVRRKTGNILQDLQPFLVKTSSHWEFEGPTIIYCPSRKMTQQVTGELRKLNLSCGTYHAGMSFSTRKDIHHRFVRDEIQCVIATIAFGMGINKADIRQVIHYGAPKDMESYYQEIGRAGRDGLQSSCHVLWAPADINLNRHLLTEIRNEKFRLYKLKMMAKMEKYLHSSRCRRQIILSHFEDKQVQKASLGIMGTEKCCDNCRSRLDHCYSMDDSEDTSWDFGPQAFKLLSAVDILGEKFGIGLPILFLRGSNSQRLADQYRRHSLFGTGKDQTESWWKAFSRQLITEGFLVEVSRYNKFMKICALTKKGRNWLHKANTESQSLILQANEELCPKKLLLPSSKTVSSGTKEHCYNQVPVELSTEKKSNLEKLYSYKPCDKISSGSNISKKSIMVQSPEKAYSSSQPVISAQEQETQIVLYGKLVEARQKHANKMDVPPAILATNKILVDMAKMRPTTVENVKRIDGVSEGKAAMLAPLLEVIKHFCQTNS
The compounds listed here are annotated with their IC50.
MEASURE: IC50 (µM)

>>> df
                                    compound                               measured_on  test_result
 0  C[C@@H](/C=C/S(C)(=O)=O)NC(=O)c1cnc(C2CC2)nc1OC1CC2(CCC2)C1 [Example 141]  hWRN(519-1227)_C-H3CV-GFP-10His (Homo sapiens, UniProt Q14191)          118
 1  CS(=O)(=O)/C=C/CNC(=O)c1cnc(-c2ccn[nH]2)nc1Oc1ccccc1 [Example 209]  hWRN(519-1227)_C-H3CV-GFP-10His (Homo sapiens, UniProt Q14191)           18
 2  CS(=O)(=O)/C=C/[C@@H](NC(=O)c1cnc(C2CC2)nc1Oc1ccccc1)C1CCC1 [Example 29]  hWRN(519-1227)_C-H3CV-GFP-10His (Homo sapiens, UniProt Q14191)        0.645
 3  C[C@@H](/C=C/S(C)(=O)=O)NC(=O)c1cnc(C2CCOCC2)nc1Oc1ccccc1 [Example 238]  hWRN(519-1227)_C-H3CV-GFP-10His (Homo sapiens, UniProt Q14191)           53
 4  C[C@@H](/C=C/S(C)(=O)=O)NC(=O)c1cnc(C2(O)CCCC2)nc1Oc1ccccc1 [Example 216]  hWRN(519-1227)_C-H3CV-GFP-10His (Homo sapiens, UniProt Q14191)         7.74
 5  CC(C)N(C)c1ncc(C(=O)N[C@H](/C=C/S(C)(=O)=O)C2CC2)c(Oc2ccccc2)n1 [Example 186]  hWRN(519-1227)_C-H3CV-GFP-10His (Homo sapiens, UniProt Q14191)          0.2
 6  C[C@@H](/C=C/S(C)(=O)=O)NC(=O)c1cnc(C2CCCC2)nc1O[C@@H]1CCCC[C@@H]1O (single isomer, unassigned) [Example 130]  hWRN(519-1227)_C-H3CV-GFP-10His (Homo sapiens, UniProt Q14191)           50
 7  Cn1ncc2cc(C(=O)N[C@H](/C=C/S(C)(=O)=O)C3CC3)c(Oc3ccccc3)nc21 [Example 252]  hWRN(519-1227)_C-H3CV-GFP-10His (Homo sapiens, UniProt Q14191)           12
 8  CN(C)C(=O)C[C@@H](/C=C/S(C)(=O)=O)NC(=O)c1cnc(C(C)(F)F)nc1Oc1ccccc1 [Example 92]  hWRN(519-1227)_C-H3CV-GFP-10His (Homo sapiens, UniProt Q14191)          1.1
 9  CCN(CC)c1ncc(C(=O)N[C@H](/C=C/S(C)(=O)=O)C2CC2)c(Oc2ccccc2)n1 [Example 179]  hWRN(519-1227)_C-H3CV-GFP-10His (Homo sapiens, UniProt Q14191)         1.04
10  CC(C)[C@@H](/C=C/S(C)(=O)=O)NC(=O)c1cnc(C2CCCC2)nc1Oc1ccccc1 [Example 7]  hWRN(519-1227)_C-H3CV-GFP-10His (Homo sapiens, UniProt Q14191)          2.7
11  COC[C@@H](/C=C/S(C)(=O)=O)NC(=O)c1cnc(C(C)(C)C)nc1Oc1ccccc1 [Example 63]  hWRN(519-1227)_C-H3CV-GFP-10His (Homo sapiens, UniProt Q14191)       0.0879
12  CS(=O)(=O)/C=C/CNC(=O)c1ccc(C2CCCC2)cc1OC1CC1 [Example 283]  hWRN(519-1227)_C-H3CV-GFP-10His (Homo sapiens, UniProt Q14191)           64
13  CCN(C)c1ncc(C(=O)N[C@H](/C=C/S(C)(=O)=O)C2CC2)c(Oc2ccccc2)n1 [Example 185]  hWRN(519-1227)_C-H3CV-GFP-10His (Homo sapiens, UniProt Q14191)        0.239
14  C[C@@H](/C=C/S(C)(=O)=O)NC(=O)c1cnc(C(F)(F)C(F)(F)F)nc1Oc1ccccc1 [Example 83]  hWRN(519-1227)_C-H3CV-GFP-10His (Homo sapiens, UniProt Q14191)        0.238
15  N#C/C=C/CNC(=O)c1cnc(C2CC2)nc1Oc1ccccc1 [Example 266]  hWRN(519-1227)_C-H3CV-GFP-10His (Homo sapiens, UniProt Q14191)          116
16  C[C@@H](/C=C/S(C)(=O)=O)NC(=O)c1cnc(C2CCCC2)nc1Oc1cc(F)cc(Cl)c1 [Example 122]  hWRN(519-1227)_C-H3CV-GFP-10His (Homo sapiens, UniProt Q14191)           22
17  C[C@@H](/C=C/S(C)(=O)=O)NC(=O)c1cnc([C@H]2C[C@H](C)C2)nc1Oc1ccccc1 (single isomer, unassigned) [Example 47]  hWRN(519-1227)_C-H3CV-GFP-10His (Homo sapiens, UniProt Q14191)         0.77
18  CS(=O)(=O)/C=C/[C@@H](NC(=O)c1cnc(C2(F)CC2)nc1Oc1ccccc1)C1CC1 [Example 100]  hWRN(519-1227)_C-H3CV-GFP-10His (Homo sapiens, UniProt Q14191)        0.174
19  C[C@@H](/C=C/S(C)(=O)=O)NC(=O)c1cnc(C2CCCC2)nc1Oc1cccc(O)c1 [Example 136]  hWRN(519-1227)_C-H3CV-GFP-10His (Homo sapiens, UniProt Q14191)           11
20  CC(F)(F)c1ccc(C(=O)N[C@H](/C=C/S(C)(=O)=O)C2CC2)c(Oc2ccccc2)n1 [Example 233]  hWRN(519-1227)_C-H3CV-GFP-10His (Homo sapiens, UniProt Q14191)        0.072
21  C[C@@H](/C=C/S(C)(=O)=O)NC(=O)c1cnc(C2CC2)nc1OC12CCC(CC1)C2 [Example 143]  hWRN(519-1227)_C-H3CV-GFP-10His (Homo sapiens, UniProt Q14191)           14
22  C[C@@H](/C=C/S(C)(=O)=O)NC(=O)c1cnc(C2CC3(CC3)C2)nc1Oc1ccccc1 [Example 55]  hWRN(519-1227)_C-H3CV-GFP-10His (Homo sapiens, UniProt Q14191)         0.91
23  Cc1ccc(Oc2nc(C3CCCC3)ncc2C(=O)NC/C=C/S(C)(=O)=O)cc1 [Example 104]  hWRN(519-1227)_C-H3CV-GFP-10His (Homo sapiens, UniProt Q14191)           19
24  CC(C)c1ncc(C(=O)N[C@H](/C=C/S(C)(=O)=O)C2CC2)c(Oc2ccccc2)n1 [Example 16]  hWRN(519-1227)_C-H3CV-GFP-10His (Homo sapiens, UniProt Q14191)         0.18
25  CC(C)=Cc1ncc(C(=O)N[C@@H](C)/C=C/S(C)(=O)=O)c(Oc2ccccc2)n1 [Example 213]  hWRN(519-1227)_C-H3CV-GFP-10His (Homo sapiens, UniProt Q14191)           11
26  C[C@@H](/C=C/S(C)(=O)=O)NC(=O)c1cnc(C2CCCC2)nc1Oc1cc(F)cc(F)c1 [Example 116]  hWRN(519-1227)_C-H3CV-GFP-10His (Homo sapiens, UniProt Q14191)          2.2
27  CS(=O)(=O)/C=C/[C@@H](NC(=O)c1ccc(C(F)(F)C2CC2)nc1Oc1ccccc1)C1CC1 [Example 234]  hWRN(519-1227)_C-H3CV-GFP-10His (Homo sapiens, UniProt Q14191)        0.056
28  CS(=O)(=O)/C=C/[C@@H](NC(=O)c1cnc(C2CCCC2)nc1Oc1ccccc1)C1CCC1 [Example 9]  hWRN(519-1227)_C-H3CV-GFP-10His (Homo sapiens, UniProt Q14191)         0.16
29  C[C@@H](/C=C/S(C)(=O)=O)NC(=O)c1cnc(C2CCCC2)nc1Oc1ccc(O)cc1 [Example 135]  hWRN(519-1227)_C-H3CV-GFP-10His (Homo sapiens, UniProt Q14191)           70
30  C[C@@H](/C=C/S(C)(=O)=O)NC(=O)c1cnc(C2Cc3ccccc32)nc1Oc1ccccc1 (stereo partly shown) [Example 52]  hWRN(519-1227)_C-H3CV-GFP-10His (Homo sapiens, UniProt Q14191)           66
